Molecular target: human ether-à-go-go-related gene (hERG) potassium channel (human, UniProt Q12809)
Sequence (Q12809 whole entry, looked up): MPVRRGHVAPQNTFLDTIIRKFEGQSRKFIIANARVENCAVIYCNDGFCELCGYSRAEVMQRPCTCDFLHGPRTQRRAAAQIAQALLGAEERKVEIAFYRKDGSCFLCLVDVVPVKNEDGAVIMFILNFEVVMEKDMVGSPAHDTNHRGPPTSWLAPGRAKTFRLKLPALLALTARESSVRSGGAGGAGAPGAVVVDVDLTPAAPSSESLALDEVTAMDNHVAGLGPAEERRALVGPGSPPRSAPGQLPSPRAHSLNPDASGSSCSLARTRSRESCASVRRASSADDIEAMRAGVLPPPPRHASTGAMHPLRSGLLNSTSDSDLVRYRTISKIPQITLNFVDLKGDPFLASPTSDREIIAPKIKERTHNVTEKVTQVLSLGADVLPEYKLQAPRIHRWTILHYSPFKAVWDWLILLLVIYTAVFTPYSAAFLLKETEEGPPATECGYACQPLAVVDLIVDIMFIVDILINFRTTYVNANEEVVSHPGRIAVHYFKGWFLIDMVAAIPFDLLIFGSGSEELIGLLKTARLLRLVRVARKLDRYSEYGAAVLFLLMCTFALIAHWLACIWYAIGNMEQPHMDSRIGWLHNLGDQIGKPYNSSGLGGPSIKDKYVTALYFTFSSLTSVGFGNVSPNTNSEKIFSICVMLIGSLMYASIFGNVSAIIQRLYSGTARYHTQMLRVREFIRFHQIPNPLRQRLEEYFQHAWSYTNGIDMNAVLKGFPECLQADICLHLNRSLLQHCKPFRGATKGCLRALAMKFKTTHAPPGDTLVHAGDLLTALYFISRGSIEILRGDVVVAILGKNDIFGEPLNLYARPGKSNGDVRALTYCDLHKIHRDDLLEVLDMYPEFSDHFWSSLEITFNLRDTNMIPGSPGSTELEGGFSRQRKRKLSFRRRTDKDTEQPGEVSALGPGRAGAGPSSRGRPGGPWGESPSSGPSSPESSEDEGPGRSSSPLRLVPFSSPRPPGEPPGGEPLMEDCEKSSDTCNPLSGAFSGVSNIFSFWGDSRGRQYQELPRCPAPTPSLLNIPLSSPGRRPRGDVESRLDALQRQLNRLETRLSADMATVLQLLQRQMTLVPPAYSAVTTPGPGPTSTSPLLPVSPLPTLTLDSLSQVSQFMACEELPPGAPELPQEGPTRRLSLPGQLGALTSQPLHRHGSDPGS
Assay: primary screen, population patch clamp on CHO cells stably expressing hERG; higher = less effect of the substance
Protocol: Briefly, Chinese hamster ovary (CHO) cells stably expressing the hERG channel were dislodged from tissue culture flasks and dispensed into PPC plates. […] During the recording, background leak currents were estimated by a 100 ms step to -80 mV from an initial holding potential of -70 mV and subtracted from the subsequent current measurement. The campaign was conducted in two phases using slight differences in recording protocol. […]
Hit rate of the full screen: of about 310,000 compounds, about 14,000 (4.5%) showed an effect of 50% or more. The effect is printed as a negative number. The entries come from a sample that favours strong results as a whole.
For each record, write down the corresponding hERG current change (%, negative = inhibition) at 10uM.

Look up hERG current change (%, negative = inhibition) at 10uM with human ether-à-go-go-related gene (hERG) potassium channel (human, UniProt Q12809) for this compound: O=C(COc1ccc(S(=O)(=O)N2CCCC2)cc1Cl)N1CCN(c2ccccc2)CC1
-15.5%

Requested read-out hERG current change (%, negative = inhibition) at 10uM, target or system human ether-à-go-go-related gene (hERG) potassium channel (human, UniProt Q12809), entry COc1ccc(S(=O)(=O)N2CCC3(CC2)OCCN3S(=O)(=O)c2ccccc2)cc1OC
0.907%

Please provide the recorded hERG current change (%, negative = inhibition) at 10uM for CC[n+]1ccc(/C=C/c2c[nH]c3ccccc23)cc1.[Cl-] , tested on human ether-à-go-go-related gene (hERG) potassium channel (human, UniProt Q12809).
-6.54%

Entry Cc1cccc(CN2C(=O)/C(=C\c3ccc(C(=O)NCCCN4CCN(C)CC4)cc3)Oc3ccccc32)c1 , system human ether-à-go-go-related gene (hERG) potassium channel (human, UniProt Q12809): what hERG current change (%, negative = inhibition) at 10uM was measured?
-4.13%

human ether-à-go-go-related gene (hERG) potassium channel (human, UniProt Q12809) / hERG current change (%, negative = inhibition) at 10uM / COc1cc(NS(=O)(=O)c2cc3c(cc2C)NC(=O)CO3)cc(OC)c1 : value?
-62.2%

Report hERG current change (%, negative = inhibition) at 10uM for COc1ccc(OC)c(/C=N/NC(=O)Cc2nc3ccccc3[nH]2)c1 tested on human ether-à-go-go-related gene (hERG) potassium channel (human, UniProt Q12809).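 Note: peak tail current of the secondary pulse compared with the same well before compound.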
5.63%

###

Target: human ether-à-go-go-related gene (hERG) potassium channel (human, UniProt Q12809);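 note: peak tail current of the secondary pulse compared with the same well before compound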
Test: primary screen, population patch clamp on CHO cells stably expressing hERG; higher = less effect of the substance
Screen size: about 310,000 compounds; about 14,000 (4.5%) showed an effect of 50% or more. The effect is printed as a negative number. Only a selection was taken, and strong results are over-represented in it overall.
Endpoint: hERG current change (%, negative = inhibition) at 10uM (%)
Lab book: enter the figure in %, no units written.

Name the recorded hERG current change (%, negative = inhibition) at 10uM for CCOC(=O)c1ccc(Oc2coc3cc(O)ccc3c2=O)cc1 .
17.6

What value of hERG current change (%, negative = inhibition) at 10uM has been reported for the following molecule? COc1ccc(OCc2nc(N)nc(Nc3ccccc3)n2)cc1
-4.98

# hERG current change (%, negative = inhibition) at 10uM lookup, item O=C1c2ccccc2C(=O)N1CCSc1nc2ccccc2c(=O)n1CCCN1CCOCC1
-15.1

Value lookup for hERG current change (%, negative = inhibition) at 10uM; key = CCCSc1nc2cc(OC)c(OC)cc2c(=N)n1CCCN1CCOCC1
-74.6

Record request: hERG current change (%, negative = inhibition) at 10uM value, item O=C(Nc1cccn(Cc2ccc(F)cc2)c1=O)NC1CCCCC1
-36.2

Any idea what its hERG current change (%, negative = inhibition) at 10uM is? The molecule is CC(=O)c1c(C)[nH]c(C(=O)CSc2nc3ccccc3c(=O)n2CCCN2CCOCC2)c1C
-15.5

Look at this molecule and give its reported hERG current change (%, negative = inhibition) at 10uM. CNC(=S)Nc1cc(Cl)ccc1Oc1ccccc1
-6.86

For the molecule COc1ccc(-c2noc(CN3CCC(Cc4ccccc4)CC3)n2)cc1 , what hERG current change (%, negative = inhibition) at 10uM is on record?
-8.3

State the recorded hERG current change (%, negative = inhibition) at 10uM for this entry: COCCCn1c(SCC(=O)O)nc2cc(OC)c(OC)cc2c1=N
9.07

Please look up its hERG current change (%, negative = inhibition) at 10uM: OC(COC(c1ccccc1)c1ccccc1)CN1CCN(c2ccccn2)CC1 (stereo not shown)
-74.7

Quick one: hERG current change (%, negative = inhibition) at 10uM for CCOc1ccccc1NC(=O)NC1CC2CCCC(C1)N2Cc1nnnn1CCc1ccccc1 (stereo not shown) ?
-5.67

What hERG current change (%, negative = inhibition) at 10uM value was documented for this molecule, Cc1ccccc1OCC(=O)Nc1cccc(S(=O)(=O)NC2=NCCCCC2)c1 ?
-7.89

Would you mind telling me what hERG current change (%, negative = inhibition) at 10uM value was observed for Cl.OC(COc1ccc(Cl)c2ccccc12)CN1CCN(c2ccccn2)CC1 (stereo not shown) ?
-21.9

Need hERG current change (%, negative = inhibition) at 10uM, item COc1ccc(Nc2nc(N)nc(CN3CCC(C)CC3)n2)cc1
-75.4

What value of hERG current change (%, negative = inhibition) at 10uM has been reported for the following molecule? COc1ccc(Nc2nc(N)nc(CSC(=S)N3CCC(C)CC3)n2)cc1
-5.86

Value lookup for hERG current change (%, negative = inhibition) at 10uM; key = Cl.OC(COC(c1ccc(Cl)cc1)c1ccc(Cl)cc1)CN1CCN(c2ccccn2)CC1 (stereo not shown)
-82.4

###

So I've got a bunch of molecules here, and I need their hERG current change (%, negative = inhibition) at 10uM values.
Target: human ether-à-go-go-related gene (hERG) potassium channel (human, UniProt Q12809);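 note: peak tail current of the secondary pulse compared with the same well before compound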
Assay: primary screen, population patch clamp on CHO cells stably expressing hERG; higher = less effect of the substance
Procedure: Briefly, Chinese hamster ovary (CHO) cells stably expressing the hERG channel were dislodged from tissue culture flasks and dispensed into PPC plates. […] During the recording, background leak currents were estimated by a 100 ms step to -80 mV from an initial holding potential of -70 mV and subtracted from the subsequent current measurement. The campaign was conducted in two phases using slight differences in recording protocol. […]
Screen size: about 310,000 compounds; about 14,000 (4.5%) showed an effect of 50% or more. The effect is printed as a negative number. The sample holds strong results, similar compounds and a random draw of the others, so the mix is not that of the screen.

What value of hERG current change (%, negative = inhibition) at 10uM has been recorded for this entry: COc1cccc(N2CCN(Cc3nc(N)nc(Nc4ccccc4)n3)CC2)c1
-68%

// lookup hERG current change (%, negative = inhibition) at 10uM for O=C(COc1coc(CN2CCc3ccccc3C2)cc1=O)Nc1cccc([N+](=O)[O-])c1
2.89%

// returns reported hERG current change (%, negative = inhibition) at 10uM for input Fc1ccc(C2c3[nH]c4ccccc4c3CCN2Cc2ccoc2)cc1 (stereo not shown)
-26.8%

I would be grateful if you could share the reported hERG current change (%, negative = inhibition) at 10uM for Br.Cc1ccc(N2Cc3ccccc3C2=N)cc1[N+](=O)[O-] .
-4.21%

Dear colleague, I am looking for the recorded hERG current change (%, negative = inhibition) at 10uM of the following molecule: Cc1ccccc1C1c2[nH]c3ccccc3c2CCN1Cc1cccn1-c1ncccn1 (stereo not shown)
-46.3%

Requested read-out: hERG current change (%, negative = inhibition) at 10uM. Entry: COc1ccc(CN2C(=O)COc3ccccc32)cc1
12%

Return reported hERG current change (%, negative = inhibition) at 10uM; argument: Cc1ccc(S(=O)(=O)Nc2ccc(C(=O)N3CCCC3)cc2)cc1
-0.474%

###

Record form. Attribute: hERG current change (%, negative = inhibition) at 10uM. Fill in for each entry.
Target: human ether-à-go-go-related gene (hERG) potassium channel (human);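 note: peak tail current of the secondary pulse compared with the same well before compound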
Test: primary screen, population patch clamp on CHO cells stably expressing hERG; higher = less effect of the substance
Hit rate of the full screen: of about 310,000 compounds, about 14,000 (4.5%) showed an effect of 50% or more. Effects have a minus sign here. Shown is part of a subset that was picked to be rich in strong results.

State the recorded hERG current change (%, negative = inhibition) at 10uM for this entry: C#CCOCCOCCOCCNc1nc(N2CCN(C(=O)[C@H]([C@@H](C)CC)n3cc(CCCC[NH3+])nn3)CC2)nc(N2CCN(C(=O)[C@H](CCCC[NH3+])n3cc(CC(C)O)nn3)CC2)n1.[Cl-] (some centres unmarked)
14.3%

Reported hERG current change (%, negative = inhibition) at 10uM for Cn1c(COc2ccccc2)nnc1SCc1nc2ccccc2[nH]1 : what is it?
-9.92%

# input compound: CCC(C)N(C(=O)c1csnn1)C(C(=O)NC1CCCC1)c1ccc(F)cc1 (centres unmarked) ; wanted: its hERG current change (%, negative = inhibition) at 10uM
0.39%

State the recorded hERG current change (%, negative = inhibition) at 10uM for this entry: COc1ccc(OC)c(CN2CCN(S(=O)(=O)c3ccc(NC(C)=O)cc3)CC2)c1.O=C(O)C(=O)O
-3.01%

Look at this compound and give its reported hERG current change (%, negative = inhibition) at 10uM. CCc1ccc2[nH]c(=O)c(CN(CCN(CC)CC)C(=S)NCc3ccco3)cc2c1
-67.9%

Item under review: CCn1c(SCC(=O)NC2CCS(=O)(=O)C2)nnc1-c1ccccc1 (centres unmarked) . Reported hERG current change (%, negative = inhibition) at 10uM?
5.49%

What value of measured hERG current change (%, negative = inhibition) at 10uM is listed for CSCCC(NC(=O)COc1ccccc1)C(=O)N(C)Cc1ccc(Cl)cc1Cl (centres unmarked) ?
-24.5%

Fill in the blank: the reported hERG current change (%, negative = inhibition) at 10uM of COc1ccc(Cc2nc3ccc(C(=O)N(C)CCn4ccnc4)cc3o2)cc1OC is ____.
15.5%

Which hERG current change (%, negative = inhibition) at 10uM reading was recorded for the compound Cc1ccc(-c2nc(CS(=O)CC(=O)NC3CC3)c(C)o2)cc1 (centres unmarked) ?
6.39%

Reported hERG current change (%, negative = inhibition) at 10uM, compound CSCCC(NC(=O)COc1ccccc1)C(=O)N(C)Cc1ccc(F)cc1 (centres unmarked) : ____
-50.3%

Param item = COc1cc(C)c(Br)cc1S(=O)(=O)NCc1ccccc1 ; retrieve measured hERG current change (%, negative = inhibition) at 10uM.
12.9%

Which measured hERG current change (%, negative = inhibition) at 10uM value corresponds to Cc1oc(-c2ccc3ccccc3c2)nc1CN(C)C(C)c1ccncn1 (centres unmarked) ?
-49.8%

Consider the compound Cc1ccsc1-c1nc(CN2CCN(C)C(=O)[C@@H]2C)c(C)o1 and give its measured hERG current change (%, negative = inhibition) at 10uM.
-52.5%

Dear colleague, I am looking for the recorded hERG current change (%, negative = inhibition) at 10uM of the following compound: O=C(CSc1nnc(-c2ccc(Br)cc2)n1CCc1ccccc1)NC1CCS(=O)(=O)C1 (centres unmarked)
-86.8%

I'd like to know its hERG current change (%, negative = inhibition) at 10uM. The compound in question is Cc1cc(-n2c(C)cc(C(=O)COc3ccccc3[N+](=O)[O-])c2C)no1
-4.91%

Entry CCCC(=O)Oc1ccc(N(C(=O)CCC)S(=O)(=O)c2cccs2)cc1 has what hERG current change (%, negative = inhibition) at 10uM?
10.9%

Which hERG current change (%, negative = inhibition) at 10uM is reported for this compound? O=C(CSc1n[nH]c(=O)[nH]c1=O)c1ccc(Cl)cc1Cl
16.1%

Which hERG current change (%, negative = inhibition) at 10uM is reported for this compound? COc1cc(CN2CCN(S(=O)(=O)c3ccccc3)CC2)cc(OC)c1OC.O=C(O)C(=O)O
-5.31%

State the recorded hERG current change (%, negative = inhibition) at 10uM for this entry: Cc1ccc(-c2ccc(S(=O)(=O)NCC3CCCO3)cc2)cc1 (centres unmarked)
26.2%

GET /values?readout=hERG current change (%, negative = inhibition) at 10uM&item= COc1ccccc1-n1c(SCC(=O)NC2CCS(=O)(=O)C2)nc2ccccc2c1=O (centres unmarked)
-3.39%

Given the compound Cc1ccsc1-c1nc(CN(C)C(C2CC2)C2CC2)c(C)o1 , what is its reported hERG current change (%, negative = inhibition) at 10uM?
-76%

Which hERG current change (%, negative = inhibition) at 10uM is listed for CSCCC(NC(=O)COc1ccccc1)C(=O)N(C)Cc1cccc(F)c1 (centres unmarked) ?
-37.9%

Entry Cc1oc(-c2cc(F)ccc2F)nc1CN1CCN(C)C(=O)[C@@H]1C has what hERG current change (%, negative = inhibition) at 10uM?
8.32%

// hERG current change (%, negative = inhibition) at 10uM lookup, key: COc1ccc(CN2CCN(S(=O)(=O)c3ccccc3)CC2)c(OC)c1OC
3.14%

Consider the compound shown here: Cc1ccsc1-c1nc(CN2CCCC2c2ccc(F)cc2)c(C)o1 (centres unmarked) What is its recorded hERG current change (%, negative = inhibition) at 10uM?
24.9%

Looking for the measured hERG current change (%, negative = inhibition) at 10uM of CN(C)CCCN(Cc1cc2cc3c(cc2[nH]c1=O)OCO3)C(=S)NCc1ccco1 , can you help?
-19.2%
